Data origin: ChEMBL document CHEMBL1128444

# Ratio per record follows
# TESTED ON: Monoamine transporters; serotonin & dopamine (Rattus norvegicus) (UniProt P31652+P23977)
# Sequence (P23977 whole entry, looked up): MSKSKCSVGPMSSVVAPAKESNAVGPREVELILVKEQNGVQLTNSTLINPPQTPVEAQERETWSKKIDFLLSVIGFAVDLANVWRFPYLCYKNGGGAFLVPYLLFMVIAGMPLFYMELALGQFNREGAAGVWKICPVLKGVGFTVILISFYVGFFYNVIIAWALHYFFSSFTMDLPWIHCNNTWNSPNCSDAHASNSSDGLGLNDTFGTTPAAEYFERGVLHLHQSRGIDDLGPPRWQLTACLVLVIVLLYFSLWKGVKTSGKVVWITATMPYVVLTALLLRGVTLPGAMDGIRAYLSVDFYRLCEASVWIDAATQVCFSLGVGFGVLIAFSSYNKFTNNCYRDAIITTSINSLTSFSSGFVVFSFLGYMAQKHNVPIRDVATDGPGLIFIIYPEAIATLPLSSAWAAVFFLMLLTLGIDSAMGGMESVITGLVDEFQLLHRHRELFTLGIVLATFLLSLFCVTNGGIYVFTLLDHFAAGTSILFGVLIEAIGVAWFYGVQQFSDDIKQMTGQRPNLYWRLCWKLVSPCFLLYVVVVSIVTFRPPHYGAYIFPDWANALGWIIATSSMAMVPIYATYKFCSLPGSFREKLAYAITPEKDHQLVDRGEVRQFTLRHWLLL
# Sequence (P31652 whole entry, looked up): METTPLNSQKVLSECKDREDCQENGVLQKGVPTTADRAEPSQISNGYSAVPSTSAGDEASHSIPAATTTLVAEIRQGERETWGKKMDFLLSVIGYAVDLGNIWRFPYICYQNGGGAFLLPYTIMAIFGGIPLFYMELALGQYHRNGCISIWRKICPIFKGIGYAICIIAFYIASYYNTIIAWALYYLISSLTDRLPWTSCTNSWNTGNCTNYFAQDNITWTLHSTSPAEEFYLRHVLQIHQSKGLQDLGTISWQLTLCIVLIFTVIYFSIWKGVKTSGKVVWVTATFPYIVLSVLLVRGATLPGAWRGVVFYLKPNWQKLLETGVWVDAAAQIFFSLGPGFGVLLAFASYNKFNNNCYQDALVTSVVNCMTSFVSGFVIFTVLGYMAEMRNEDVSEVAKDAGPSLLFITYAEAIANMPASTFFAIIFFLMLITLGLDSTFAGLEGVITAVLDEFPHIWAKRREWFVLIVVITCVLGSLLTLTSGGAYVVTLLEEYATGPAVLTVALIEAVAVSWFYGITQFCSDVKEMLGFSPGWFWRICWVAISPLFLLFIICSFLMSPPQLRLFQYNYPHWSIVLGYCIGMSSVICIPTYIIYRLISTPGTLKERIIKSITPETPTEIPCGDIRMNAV
# ASSAY PROCEDURE: Ratio of IC50 value against Serotonin transporter to that of dopamine transporter
# Type: protein assay

COMPOUND: Cc1ccc(OC(=O)C2C(c3ccc(Cl)cc3)CC3CCC2N3C)cc1 (configuration not stated)
TESTED ON: Monoamine transporters; serotonin & dopamine (Rattus norvegicus) (UniProt P31652+P23977)
Ratio: 44

COMPOUND: CN1C2CCC1C(C(=O)Oc1ccccc1)C(c1ccccc1)C2 (configuration not stated)
TESTED ON: Monoamine transporters; serotonin & dopamine (Rattus norvegicus) (UniProt P31652+P23977)
Ratio: 1380

COMPOUND: CN1C2CCC1C(C(=O)Oc1ccccc1)C(OC(=O)c1ccccc1)C2 (configuration not stated)
TESTED ON: Monoamine transporters; serotonin & dopamine (Rattus norvegicus) (UniProt P31652+P23977)
Ratio: 301

COMPOUND: CON(C)C(=O)C1C(c2ccc(C)cc2)CC2CCC1N2C (configuration not stated)
TESTED ON: Monoamine transporters; serotonin & dopamine (Rattus norvegicus) (UniProt P31652+P23977)
Ratio: 1330

COMPOUND: COc1ccc(OC(=O)C2C(c3ccc(C)cc3)CC3CCC2N3C)cc1 (configuration not stated)
TESTED ON: Monoamine transporters; serotonin & dopamine (Rattus norvegicus) (UniProt P31652+P23977)
Ratio: 861

COMPOUND: CN1C2CCC1C(C(=O)OCCCc1ccccc1)C(OC(=O)c1ccccc1)C2 (configuration not stated)
TESTED ON: Monoamine transporters; serotonin & dopamine (Rattus norvegicus) (UniProt P31652+P23977)
Ratio: 2.5

COMPOUND: CN1C2CCC1C(C(=O)N1CCOCC1)C(c1ccc(Cl)cc1)C2 (configuration not stated)
TESTED ON: Monoamine transporters; serotonin & dopamine (Rattus norvegicus) (UniProt P31652+P23977)
Ratio: 30600
